// data source = PubChem BioAssay AID372

Assignment: determine reported inhibition for the given compounds.
target: Gag-Pol polyprotein (Human immunodeficiency virus type 1 group M subtype B (isolate HXB2)) (UniProt P04585); experiment: RNase H inhibition, HIV 1 Gag Pol polyprotein, FRET biochemical assay, screening (AID 372); settings: HIV-1 RT RNase H, FRET RNA/DNA substrate fluorescence; at 10 µM; active compounds read high
In all, about 100,000 compounds went through this assay and about 770 (0.77%) were called active. Only a selection was taken, and actives are over-represented in it overall.

These solved cases illustrate the format of a correct answer.
{"Compound": "CC1=NN(C(=O)c2cccc(O)c2)C(O)(c2ccc(Br)cc2)C1 (centres undefined)", "Outcome Measure": "inhibition", "Reported Result": "8% (inactive)"}
{"Compound": "Cc1cccc(OC(=O)c2cccc([N+](=O)[O-])c2)c1", "Outcome Measure": "inhibition", "Reported Result": "6% (inactive)"}
{"Compound": "CCOc1ccc(C(=O)NCc2ccco2)cc1Cl", "Outcome Measure": "inhibition", "Reported Result": "6% (inactive)"}

Need inhibition for each of these compounds.
1. Cc1ccc(C(=O)NC(=S)Nc2cc(Cl)cc(Cl)c2)cc1C
2. Cc1cccc(C)c1NC(=S)NC(=O)c1ccc(Br)cc1
3. O=C(O)C1CN(S(=O)(=O)c2ccccc2)CCN1S(=O)(=O)c1ccccc1 (centres undefined)
4. Cc1ccc(C(=O)NCc2ccco2)cc1

50% (active)
2% (inactive)
8% (inactive)
0% (inactive)

Need inhibition for each of these compounds.
1. O=C(N/N=C/c1ccc([N+](=O)[O-])cc1)c1ccccn1
2. CCc1nnc(NC(=O)CCCOc2ccc(Cl)cc2C)s1

1. 7% (inactive)
2. 12% (inactive)

Need inhibition for each of these compounds.
1. CSc1nnc2c(n1)[nH]c1c(C)cccc12
2. CCOc1ccc(C(=O)NCc2ccco2)cc1Br
3. O=[N+]([O-])c1cccc(-n2nncc2C23CC4CC(CC(C4)C2)C3)c1

1: 10% (inactive); 2: 5% (inactive); 3: 19% (inactive)

---

target: Gag-Pol polyprotein (Human immunodeficiency virus type 1 group M subtype B (isolate HXB2)); assay: RNase H inhibition, HIV 1 Gag Pol polyprotein, FRET biochemical assay, screening (AID 372); conditions: HIV-1 RT RNase H, FRET RNA/DNA substrate fluorescence; at 10 µM; active compounds read high
In all, about 100,000 compounds went through this assay and about 770 (0.77%) were called active. The sample as a whole holds a higher share of actives than the screen did.
Assignment: determine reported inhibition for the given molecules.
Numbers only, in %.

{"Molecule": "CC1=C(C(=O)OC2CCCCCC2)C(c2ccccc2)NC(=O)N1 (stereo unspecified)", "Scale Unit": "%", "inhibition": 14}

Need inhibition for each of these molecules.
1. CC1=C(C(=O)OCc2ccccc2)C(c2ccc(C)s2)NC(=O)N1 (stereo unspecified)
2. CCCCCOC(=O)C1=C(C)NC(=O)NC1c1ccc(Br)cc1 (stereo unspecified)
3. COc1cccc(/C=C/c2nc3ccccc3c(=O)n2-c2cccc([N+](=O)[O-])c2)c1O
4. CC1=C(C(=O)OC2CCCC2)C(c2ccccc2Cl)NC(=O)N1C (stereo unspecified)

[55, 20, 27, 5]

---

biological target: Gag-Pol polyprotein (Human immunodeficiency virus type 1 group M subtype B (isolate HXB2)) (UniProt P04585); test: RNase H inhibition, HIV 1 Gag Pol polyprotein, FRET biochemical assay, screening (AID 372); conditions: HIV-1 RT RNase H, FRET RNA/DNA substrate fluorescence; at 10 µM; active compounds read high
Hit rate of the full screen: of about 100,000 compounds, about 770 (0.77%) were called active. The full list was thinned out, with actives kept by preference.
Outcome Measure: inhibition

{"Compound Structure": "O=C1NC(=S)N(c2ccc(Cl)cc2)C(=O)/C1=C/c1ccc(-c2ccc(F)cc2)o1", "inhibition": "25% (inactive)"}
{"Compound Structure": "CCOc1ccc(N2C(=O)NC(=O)/C(=C\\c3ccc(I)o3)C2=O)cc1", "inhibition": "5% (inactive)"}
{"Compound Structure": "O=C1NC(=S)N(c2ccc(Cl)cc2)C(=O)/C1=C/c1ccc(N2CCCC2)o1", "inhibition": "10% (inactive)"}

Need inhibition for each of these compounds.
1. CCc1ccc(N2C(=O)/C(=C/c3ccc(I)o3)C(=O)NC2=S)cc1
2. CCc1ccc(N2C(=O)/C(=C/c3ccc(-c4ccc(F)cc4)o3)C(=O)NC2=S)cc1

1: 97% (active); 2: 26% (inactive)

---

Assignment: determine reported inhibition for the given compounds.
biological target: Gag-Pol polyprotein (Human immunodeficiency virus type 1 group M subtype B (isolate HXB2)); experiment: RNase H inhibition, HIV 1 Gag Pol polyprotein, FRET biochemical assay, screening (AID 372); settings: HIV-1 RT RNase H, FRET RNA/DNA substrate fluorescence; at 10 µM; active compounds read high
About 770 (0.77%) of roughly 100,000 compounds were called active. Shown is part of a subset that was picked to be rich in actives.

These solved cases illustrate the format of a correct answer.
{"Compound Structure": "Cc1ccc2[nH]c(=O)c(C(=O)/C=C\\c3ccc(Br)cc3)c(-c3ccccc3)c2c1", "Outcome Measure": "inhibition", "Reported Result": "28% (inactive)"}
{"Compound Structure": "CCOc1ccc(N(CC(=O)Nc2cccc(Br)c2)S(C)(=O)=O)cc1", "Outcome Measure": "inhibition", "Reported Result": "12% (inactive)"}
{"Compound Structure": "CN1CCN(C2=NC(=O)/C(=C/c3ccc4c(c3)OCO4)S2)CC1", "Outcome Measure": "inhibition", "Reported Result": "8% (inactive)"}

Need inhibition for each of these compounds.
1. COc1ccc(/C=C\C(=O)c2c(-c3ccccc3)c3cc(C)ccc3[nH]c2=O)cc1
2. CCOc1ccc(N(CC(=O)Nc2ccc(C)c(C)c2)S(C)(=O)=O)cc1

1. 7% (inactive)
2. 4% (inactive)

Need inhibition for each of these compounds.
1. CCCC(=O)Nc1ccc(NC(=O)c2ccccc2[N+](=O)[O-])cc1
2. CCOc1ccc(NC(=O)CN(c2ccc(C)c(Cl)c2)S(C)(=O)=O)cc1
3. CCOc1ccc(N(CC(=O)Nc2ccc(C)c(Cl)c2)S(C)(=O)=O)cc1
4. COc1cc(/C=C2\C(=O)NC(=O)N(C(C)(C)C)C2=O)cc(OC)c1O

7% (inactive)
3% (inactive)
56% (active)
18% (inactive)

So what does the record say about inhibition for Cc1ccc2[nH]c(=O)c(C(=O)/C=C\c3ccccc3)c(-c3ccccc3)c2c1 ?
45% (inactive)

---

biological target: Gag-Pol polyprotein (Human immunodeficiency virus type 1 group M subtype B (isolate HXB2)); experiment: RNase H inhibition, HIV 1 Gag Pol polyprotein, FRET biochemical assay, screening (AID 372); settings: HIV-1 RT RNase H, FRET RNA/DNA substrate fluorescence; at 10 µM; active compounds read high
Out of some 100,000 compounds screened, about 770 (0.77%) were called active. For the sample, actives were picked, then their nearest neighbours and some compounds at random.
Outcome Measure: inhibition (%)
Numbers only, in %.

These solved cases illustrate the format of a correct answer.
{"Compound Structure": "COc1cc(/C=C2\\SC(=Nc3ccc(C)c(Cl)c3)NC2=O)ccc1O", "Scale Unit": "%", "inhibition": 47}
{"Compound Structure": "O=C1NC(=S)S/C1=C\\c1ccc(O)c(O)c1", "Scale Unit": "%", "inhibition": 78}
{"Compound Structure": "O=C(Nc1ccc(-c2nc3ccc(NC(=O)c4ccccc4)cc3[nH]2)cc1)c1ccccc1", "Scale Unit": "%", "inhibition": 4}
{"Compound Structure": "CCOc1ccc(NC(=O)c2c(NC(=O)C(C)(C)C)sc3c2CCCC3)cc1", "Scale Unit": "%", "inhibition": 13}

# input for lookup
So what does the record say about inhibition for N/C(Cc1ccc([N+](=O)[O-])cc1)=N\OC(=O)c1ccc([N+](=O)[O-])cc1 ?
6

---

molecular target: Gag-Pol polyprotein (Human immunodeficiency virus type 1 group M subtype B (isolate HXB2)) (UniProt P04585); assay: RNase H inhibition, HIV 1 Gag Pol polyprotein, FRET biochemical assay, screening (AID 372); details: HIV-1 RT RNase H, FRET RNA/DNA substrate fluorescence; at 10 µM
The campaign covered roughly 100,000 compounds. About 770 (0.77%) were called active. Cut-off read from the data, not from the text of the source: active = inhibition above about 50%; inactive = the rest. The sample holds actives, similar compounds and a random draw of the others, so the mix is not that of the screen.
Write down one outcome, taken from active, inactive

{"Compound": "Clc1cccc(OCCN2CCOCC2)c1Cl", "Discrete Label": "inactive"}

Name the outcome recorded for CCOC(=O)C1=C(C)NC(=S)NC1c1ccc(Cl)c(Cl)c1 (stereo unspecified) in the assay.
inactive

Input COC(=O)c1c(NC(=O)c2cc(-c3ccc(Cl)s3)nc3ccccc23)sc2c1CCC(C(C)(C)C)C2 (stereo unspecified)
inactive

Input O=C(/C=C/c1ccc2c(c1)OCO2)Nc1ccccn1
inactive

Input CC(=O)Nc1ccc(N2C(=O)c3cccc4c(C(=O)c5ccccc5)ccc(c34)C2=O)cc1
inactive

Input CCn1c(-c2ccccc2C)n[nH]c1=S
inactive

Input Cc1cccc(NC(=O)/C(C#N)=C\c2cc(C)n(-c3ccc(C)c(C)c3)c2C)c1
inactive

Input COc1ccc(-c2cc(C(=O)NCc3ccco3)c3ccccc3n2)cc1
inactive

Input Cc1ccc(C(=O)Nc2ccc(Nc3ccccc3)cc2)cc1[N+](=O)[O-]
inactive

Input Clc1cccc(OCCCCN2CCOCC2)c1Cl
active

Input Clc1cccc(OCCCN2CCOCC2)c1Cl
inactive
